System: HCC-15
Assay: relative viability (nuclei count vs DMSO), 5 days (fraction); higher = more cells survive
Settings: first compound 0.253 µM
Please assign a class to every record based on measured relative viability, with ranges b0: < 0.6; b1: ≥ 0.6 and < 0.9; b2: ≥ 0.9

Check out these entries, answers already filled in.
compound	classLabel
Oc1nc(-c2ccc(C(F)(F)F)cc2)nc2c1CSCC2 [XAV939] + C[C@]1(O)C[C@@H](c2nc(-c3ccc4ccc(-c5ccccc5)nc4c3)c3c(N)nccn32)C1 [Linsitinib] (partner 1 µM)	b1
Oc1nc(-c2ccc(C(F)(F)F)cc2)nc2c1CSCC2 [XAV939] + CS(=O)(=O)CCNCc1ccc(-c2ccc3ncnc(Nc4ccc(OCc5cccc(F)c5)c(Cl)c4)c3c2)o1 [Lapatinib] (partner 2 µM)	b1
C=C1C(=O)O[C@@H](CCCCCCCC)[C@@H]1C(=O)O [C-75] + COc1cc2c(Oc3ccc(NC(=O)C4(C(=O)Nc5ccc(F)cc5)CC4)cc3F)ccnc2cc1OCCCN1CCOCC1 [Foretinib] (partner 0.25 µM)	b2

Textbook exercise: identify the category of the compound given here, C=C1C(=O)O[C@@H](CCCCCCCC)[C@@H]1C(=O)O [C-75] + O=C(c1cc(Cc2n[nH]c(=O)c3ccccc23)ccc1F)N1CCN(C(=O)C2CC2)CC1 [Olaparib] (partner 8 µM) , according to its measured value. b1

Textbook exercise: identify the category of the compound given here, C=C1C(=O)O[C@@H](CCCCCCCC)[C@@H]1C(=O)O [C-75] + Cc1nc(Nc2ncc(C(=O)Nc3c(C)cccc3Cl)s2)cc(N2CCN(CCO)CC2)n1 [Dasatinib] (partner 0.075 µM) , according to its measured value. b0

Textbook exercise: identify the category of the compound given here, Oc1nc(-c2ccc(C(F)(F)F)cc2)nc2c1CSCC2 [XAV939] + NC(=O)Nc1cc(-c2cccc(F)c2)sc1C(=O)N[C@H]1CCCNC1 [AZD7762] (partner 0.2 µM) , according to its measured value. b2

----------
Tested on: NCI-H1792
Test: relative viability (nuclei count vs DMSO), 5 days (fraction); higher = more cells survive
Conditions: first compound 0.1 µM
Please respond with reported relative viability for every item in the list.
One number for each entry.

Sample records with relative viability:
compound	assayedTarget	assayEndpoint	result
NC(=O)Nc1cc(-c2cccc(F)c2)sc1C(=O)N[C@H]1CCCNC1 [AZD7762] + CC1(C)CCC(c2ccc(Cl)cc2)=C(CN2CCN(c3ccc(C(=O)NS(=O)(=O)c4ccc(N[C@H](CCN5CCOCC5)CSc5ccccc5)c(S(=O)(=O)C(F)(F)F)c4)cc3)CC2)C1 [Navitoclax] (partner 0.5 µM)	NCI-H1792	relative viability	0.692
NC(=O)Nc1cc(-c2cccc(F)c2)sc1C(=O)N[C@H]1CCCNC1 [AZD7762] + CC(=O)c1c(C)c2cnc(Nc3ccc(N4CCNCC4)cn3)nc2n(C2CCCC2)c1=O [Palbociclib] (partner 0.5 µM)	NCI-H1792	relative viability	0.677
NC(=O)Nc1cc(-c2cccc(F)c2)sc1C(=O)N[C@H]1CCCNC1 [AZD7762] + CS(=O)(=O)N1CCN(Cc2cc3nc(-c4cccc5[nH]ncc45)nc(N4CCOCC4)c3s2)CC1 [Pictilisib] (partner 1 µM)	NCI-H1792	relative viability	0.311

Check the records and state relative viability for NC(=O)Nc1cc(-c2cccc(F)c2)sc1C(=O)N[C@H]1CCCNC1 [AZD7762] + C[C@]1(O)C[C@@H](c2nc(-c3ccc4ccc(-c5ccccc5)nc4c3)c3c(N)nccn32)C1 [Linsitinib] (partner 1 µM) 0.624

----------
Tested on: NCI-H2085
Assay: relative viability (nuclei count vs DMSO), 5 days (fraction); higher = more cells survive
Details: first compound 0.1265 µM
Please respond with reported relative viability for every item in the list.
Give bare numbers.

Sample records with relative viability:
compound	assayedTarget	relative viability
O=C(O)c1ccc(-c2c[nH]c3ncc(-c4ccccc4)cc23)cc1C1CCCC1 + COc1cccc2cc(-c3nc([C@H]4CC[C@H](C(=O)O)CC4)n4ncnc(N)c34)[nH]c12 [OSI-027] (partner 0.5 µM)	NCI-H2085	0.761
O=C(O)c1ccc(-c2c[nH]c3ncc(-c4ccccc4)cc23)cc1C1CCCC1 + O=C(c1cc(Cc2n[nH]c(=O)c3ccccc23)ccc1F)N1CCN(C(=O)C2CC2)CC1 [Olaparib] (partner 8 µM)	NCI-H2085	0.793
O=C(O)c1ccc(-c2c[nH]c3ncc(-c4ccccc4)cc23)cc1C1CCCC1 + Nc1ncn([C@H]2C[C@H](O)[C@@H](CO)O2)c(=O)n1 [Decitabine] (partner 2 µM)	NCI-H2085	0.548
O=C(O)c1ccc(-c2c[nH]c3ncc(-c4ccccc4)cc23)cc1C1CCCC1 + Cc1cc(Nc2cc(N3CCN(C)CC3)nc(Sc3ccc(NC(=O)C4CC4)cc3)n2)n[nH]1 [Tozasertib] (partner 0.1 µM)	NCI-H2085	0.829
O=C(O)c1ccc(-c2c[nH]c3ncc(-c4ccccc4)cc23)cc1C1CCCC1 + Cc1nc(NC(=O)N2CCC[C@H]2C(N)=O)sc1-c1ccnc(C(C)(C)C(F)(F)F)c1 [Alpelisib] (partner 2 µM)	NCI-H2085	0.98

Moving on to another compound below.
Check the records and state relative viability for O=C(O)c1ccc(-c2c[nH]c3ncc(-c4ccccc4)cc23)cc1C1CCCC1 + CCNC(=O)c1noc(-c2cc(C(C)C)c(O)cc2O)c1-c1ccc(CN2CCOCC2)cc1 [Luminespib] (partner 0.01 µM) 0.422

----------
Test system: HCC-15
Assay: relative viability (nuclei count vs DMSO), 5 days (fraction); higher = more cells survive
Settings: first compound 2.53 µM
Please respond with reported relative viability for every item in the list.
Numbers only.

Sample records with relative viability:
molecule	assayedTarget	relative viability
Oc1nc(-c2ccc(C(F)(F)F)cc2)nc2c1CSCC2 [XAV939] + CC(=O)Nc1cccc(-n2c(=O)n(C3CC3)c(=O)c3c(Nc4ccc(I)cc4F)n(C)c(=O)c(C)c32)c1 [Trametinib] (partner 0.02 µM)	HCC-15	0.304
C=C1C(=O)O[C@@H](CCCCCCCC)[C@@H]1C(=O)O [C-75] + COc1cccc2cc(-c3nc([C@H]4CC[C@H](C(=O)O)CC4)n4ncnc(N)c34)[nH]c12 [OSI-027] (partner 0.5 µM)	HCC-15	0.502
Oc1nc(-c2ccc(C(F)(F)F)cc2)nc2c1CSCC2 [XAV939] + COc1cccc2cc(-c3nc([C@H]4CC[C@H](C(=O)O)CC4)n4ncnc(N)c34)[nH]c12 [OSI-027] (partner 0.5 µM)	HCC-15	0.655
C=C1C(=O)O[C@@H](CCCCCCCC)[C@@H]1C(=O)O [C-75] + COc1cc2c(Oc3ccc(NC(=O)C4(C(=O)Nc5ccc(F)cc5)CC4)cc3F)ccnc2cc1OCCCN1CCOCC1 [Foretinib] (partner 0.25 µM)	HCC-15	1
Oc1nc(-c2ccc(C(F)(F)F)cc2)nc2c1CSCC2 [XAV939] + C[C@@H](Oc1cc(-c2cnn(C3CCNCC3)c2)cnc1N)c1c(Cl)ccc(F)c1Cl [Crizotinib] (partner 1 µM)	HCC-15	0.743

Batch lookup, relative viability per entry.
1. C=C1C(=O)O[C@@H](CCCCCCCC)[C@@H]1C(=O)O [C-75] + CCNC(=O)c1noc(-c2cc(C(C)C)c(O)cc2O)c1-c1ccc(CN2CCOCC2)cc1 [Luminespib] (partner 0.01 µM)
2. C=C1C(=O)O[C@@H](CCCCCCCC)[C@@H]1C(=O)O [C-75] + CC1(C)CCC(c2ccc(Cl)cc2)=C(CN2CCN(c3ccc(C(=O)NS(=O)(=O)c4ccc(N[C@H](CCN5CCOCC5)CSc5ccccc5)c(S(=O)(=O)C(F)(F)F)c4)cc3)CC2)C1 [Navitoclax] (partner 0.5 µM)
3. C=C1C(=O)O[C@@H](CCCCCCCC)[C@@H]1C(=O)O [C-75] + CS(=O)(=O)CCNCc1ccc(-c2ccc3ncnc(Nc4ccc(OCc5cccc(F)c5)c(Cl)c4)c3c2)o1 [Lapatinib] (partner 2 µM)
4. Oc1nc(-c2ccc(C(F)(F)F)cc2)nc2c1CSCC2 [XAV939] + CCNC(=O)c1noc(-c2cc(C(C)C)c(O)cc2O)c1-c1ccc(CN2CCOCC2)cc1 [Luminespib] (partner 0.01 µM)

1. 0.345
2. 0.59
3. 0.839
4. 0.235

----------
Test system: COR-L 105
Assay: relative viability (nuclei count vs DMSO), 5 days (fraction); higher = more cells survive
Conditions: first compound 0.253 µM
assayEndpoint: relative viability
Answers are plain numbers.

Sample records with relative viability:
compound	assayedTarget	relative viability
C=C1C(=O)O[C@@H](CCCCCCCC)[C@@H]1C(=O)O [C-75] + O=C(c1cc(Cc2n[nH]c(=O)c3ccccc23)ccc1F)N1CCN(C(=O)C2CC2)CC1 [Olaparib] (partner 8 µM)	COR-L 105	0.75
Oc1nc(-c2ccc(C(F)(F)F)cc2)nc2c1CSCC2 [XAV939] + CS(=O)(=O)CCNCc1ccc(-c2ccc3ncnc(Nc4ccc(OCc5cccc(F)c5)c(Cl)c4)c3c2)o1 [Lapatinib] (partner 2 µM)	COR-L 105	0.347
C=C1C(=O)O[C@@H](CCCCCCCC)[C@@H]1C(=O)O [C-75] + CC(C)C[C@H](NC(=O)[C@H](Cc1ccccc1)NC(=O)c1cnccn1)B(O)O [Bortezomib] (partner 0.002 µM)	COR-L 105	0.627
C=C1C(=O)O[C@@H](CCCCCCCC)[C@@H]1C(=O)O [C-75] + CS(=O)(=O)N1CCN(Cc2cc3nc(-c4cccc5[nH]ncc45)nc(N4CCOCC4)c3s2)CC1 [Pictilisib] (partner 1 µM)	COR-L 105	0.422
Oc1nc(-c2ccc(C(F)(F)F)cc2)nc2c1CSCC2 [XAV939] + C[C@@H](Oc1cc(-c2cnn(C3CCNCC3)c2)cnc1N)c1c(Cl)ccc(F)c1Cl [Crizotinib] (partner 1 µM)	COR-L 105	0.762

Batch lookup, relative viability per entry.
1. Oc1nc(-c2ccc(C(F)(F)F)cc2)nc2c1CSCC2 [XAV939] + CC(=O)c1c(C)c2cnc(Nc3ccc(N4CCNCC4)cn3)nc2n(C2CCCC2)c1=O [Palbociclib] (partner 0.5 µM)
2. Oc1nc(-c2ccc(C(F)(F)F)cc2)nc2c1CSCC2 [XAV939] + O=C(CCCCCCC(=O)Nc1ccccc1)NO [Vorinostat] (partner 1 µM)

[0.399, 0.659]

Batch lookup, relative viability per entry.
1. C=C1C(=O)O[C@@H](CCCCCCCC)[C@@H]1C(=O)O [C-75] + Nc1ncn([C@H]2C[C@H](O)[C@@H](CO)O2)c(=O)n1 [Decitabine] (partner 2 µM)
2. Oc1nc(-c2ccc(C(F)(F)F)cc2)nc2c1CSCC2 [XAV939] + C[C@]1(O)C[C@@H](c2nc(-c3ccc4ccc(-c5ccccc5)nc4c3)c3c(N)nccn32)C1 [Linsitinib] (partner 1 µM)

1. 0.685
2. 0.98

Reference source: the supplement of paper PMC10307832
